- TARGET DESC: RAC-alpha serine/threonine-protein kinase (Homo sapiens)
- Sequence (P31749 whole entry): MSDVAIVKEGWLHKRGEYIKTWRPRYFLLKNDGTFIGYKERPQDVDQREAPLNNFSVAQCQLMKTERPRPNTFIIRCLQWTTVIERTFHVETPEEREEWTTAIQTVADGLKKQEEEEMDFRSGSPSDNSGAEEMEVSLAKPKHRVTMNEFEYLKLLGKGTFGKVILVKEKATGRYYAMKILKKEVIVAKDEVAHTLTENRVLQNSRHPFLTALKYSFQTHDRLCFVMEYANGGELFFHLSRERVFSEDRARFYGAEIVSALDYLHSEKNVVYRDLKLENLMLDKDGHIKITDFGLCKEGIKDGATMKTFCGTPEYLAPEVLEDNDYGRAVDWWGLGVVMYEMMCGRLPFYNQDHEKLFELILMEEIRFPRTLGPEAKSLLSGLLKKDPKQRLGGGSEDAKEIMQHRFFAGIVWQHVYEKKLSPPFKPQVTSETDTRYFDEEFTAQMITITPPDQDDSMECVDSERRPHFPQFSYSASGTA
- ASSAY: Inhibition of AKT1 after 10 mins by [gamma33]ATP assay
MEASURED METRIC: pIC50
Give bare numbers, as −log10 of the molar value.

Completed entries (count: 6):
- CHEM SMILES: "Cc1n[nH]c2ccc(-c3nnc(NC[C@@H](N)Cc4ccc(F)c(F)c4)s3)cc12"
  TARGET DESC: "RAC-alpha serine/threonine-protein kinase (Homo sapiens)"
  pIC50: 7.85
- CHEM SMILES: "CCc1n[nH]c2ccc(-c3nnc(NC[C@@H](N)Cc4ccccc4)s3)cc12"
  TARGET DESC: "RAC-alpha serine/threonine-protein kinase (Homo sapiens)"
  pIC50: 6.43
- CHEM SMILES: "Cc1n[nH]c2ccc(-c3nnc(NC[C@@H](N)Cc4ccccc4F)s3)cc12"
  TARGET DESC: "RAC-alpha serine/threonine-protein kinase (Homo sapiens)"
  pIC50: 6.70
- CHEM SMILES: "Cc1n[nH]c2ccc(-c3nnc(NC[C@@H](N)Cc4ccccc4C(F)(F)F)s3)cc12"
  TARGET DESC: "RAC-alpha serine/threonine-protein kinase (Homo sapiens)"
  pIC50: 6.31
- CHEM SMILES: "Cc1cc2cc(-c3nnc(NC[C@@H](N)Cc4ccc(C(F)(F)F)cc4)s3)ccc2cn1"
  TARGET DESC: "RAC-alpha serine/threonine-protein kinase (Homo sapiens)"
  pIC50: 6.55
- CHEM SMILES: "N[C@H](CNc1nnc(-c2ccc3[nH]ncc3c2)s1)Cc1ccc(Cl)cc1"
  TARGET DESC: "RAC-alpha serine/threonine-protein kinase (Homo sapiens)"
  pIC50: 7.62

Return reported pIC50 values for all items listed beneath this line.
1. N[C@H](CNc1nnc(-c2ccc3[nH]ncc3c2)s1)Cc1ccc(C(F)(F)F)cc1
2. Cc1n[nH]c2ccc(-c3nnc(NC[C@@H](N)Cc4cccc(F)c4)s3)cc12
3. N[C@H](CNc1nnc(-c2ccc3[nH]nc(-c4ccccc4)c3c2)s1)Cc1cccc(C(F)(F)F)c1
4. Cc1n[nH]c2ccc(-c3nnc(NC[C@@H](N)Cc4ccccc4)s3)cc12
5. Cc1n[nH]c2ccc(-c3nnc(NC[C@@H](N)Cc4ccc(Cl)cc4Cl)s3)cc12
6. N[C@H](CNc1nnc(-c2ccc3[nH]ncc3c2)s1)Cc1ccc(Cl)cc1Cl

Result:
[8.22, 7.42, 6.38, 7.12, 7.74, 7.40]

----------
Could you please report measured clearance for the items listed next?
- ASSAY: Clearance in Sprague-Dawley rat at 1 mg/kg, iv
- Assay type: ADME, organism-based
- Parameters: dose 1 mg/kg, route intravenous
- EXPERIMENTAL CONDITIONS: in vivo
Numbers only, in mL/min/kg.

- CHEM SMILES: "Cc1n[nH]c2ccc(-c3nnc(NC[C@@H](N)Cc4ccc(C(F)(F)F)cc4)s3)cc12"
  clearance, mL/min/kg: 46.7

Now let's try a different one.
Query: What clearance value was documented for this compound, N[C@H](CNc1nnc(-c2ccc3[nH]ncc3c2)s1)Cc1ccc(C(F)(F)F)cc1 ?
Result: 81.7

----------
- ASSAY: Half life in Sprague-Dawley rat at 2 mg/kg, iv
- Format: ADME, organism-based
- Design: dose 2 mg/kg, route intravenous
- EXPERIMENTAL CONDITIONS: in vivo
MEASURED METRIC: half-life (h)
One number for each entry, in h.

Query: Given the molecule N[C@H](CNc1nnc(-c2ccc3cnccc3c2)s1)Cc1ccc(C(F)(F)F)cc1 , what is its reported half-life?
Result: 3.8
